Give measured mean CFU number ± S.D. for each item. Keep answers brief.
Test system: C. albicans (ATCC 10231)
Assay: In vitro antifungal CFU assay
Format: cell-based, Candida albicans
Details: peptide 0.128 mg/mL + ZnCl2 (0.9:1), 3 h, pH 5.4; per 0.1 mL
Residues, ends and D or L forms follow the SMILES beside them.
Number in CFU, nothing else.

Entry CC[C@H](C)[C@H](NC(=O)[C@H](C)NC(=O)[C@@H](NC(C)=O)C(C)C)C(=O)N[C@@H](C)C(=O)N[C@@H](CC(C)C)C(=O)N[C@@H](CCCCN)C(=O)N[C@@H](C)C(=O)N[C@@H](C)C(=O)N[C@@H](Cc1c[nH]cn1)C(=O)N[C@@H](Cc1ccc(O)cc1)C(=O)N[C@@H](Cc1c[nH]cn1)C(=O)N[C@H](C(=O)N[C@@H](Cc1c[nH]cn1)C(=O)N[C@@H](CCCCN)C(=O)N[C@@H](CCC(=O)O)C(N)=O)[C@@H](C)O [L2, Ac-VAIALKAAHYHTHKE-NH2] (Ac-VAIALKAAHYHTHKE-NH2) ; mean CFU number ± S.D. = 36

Entry CC[C@H](C)[C@H](NC(=O)[C@H](C)NC(=O)[C@@H](NC(C)=O)C(C)C)C(=O)N[C@@H](C)C(=O)N[C@@H](CC(C)C)C(=O)N[C@@H](CCCCN)C(=O)N[C@@H](C)C(=O)N[C@@H](C)C(=O)N[C@@H](Cc1c[nH]cn1)C(=O)N[C@@H](Cc1ccc(O)cc1)C(=O)N[C@@H](Cc1c[nH]cn1)C(=O)N[C@H](C(=O)N[C@@H](Cc1c[nH]cn1)C(=O)N[C@@H](CCCCN)C(=O)N[C@@H](CCC(=O)O)C(=O)O)[C@@H](C)O [L1, Ac-VAIALKAAHYHTHKE] (Ac-VAIALKAAHYHTHKE-OH) ; mean CFU number ± S.D. = 72

Entry CC[C@H](C)[C@H](NC(=O)[C@H](C)NC(=O)[C@@H](N)C(C)C)C(=O)N[C@@H](C)C(=O)N[C@@H](CC(C)C)C(=O)N[C@@H](CCCCN)C(=O)N[C@@H](C)C(=O)N[C@@H](C)C(=O)N[C@@H](Cc1c[nH]cn1)C(=O)N[C@@H](Cc1ccc(O)cc1)C(=O)N[C@@H](Cc1c[nH]cn1)C(=O)N[C@H](C(=O)N[C@@H](Cc1c[nH]cn1)C(=O)N[C@@H](CCCCN)C(=O)N[C@@H](CCC(=O)O)C(N)=O)[C@@H](C)O [L3, VAIALKAAHYHTHKE-NH2] (H-VAIALKAAHYHTHKE-NH2) ; mean CFU number ± S.D. = 71

----------
Test system: E. coli (ATCC 25922)
Test: In vitro anti-E. coli CFU assay
Assay type: cell-based, Escherichia coli
Conditions: peptide 0.128 mg/mL + CuCl2 (0.9:1), 24 h, pH 5.4; per 0.1 mL
Residues, ends and D or L forms follow the SMILES beside them.
parameter measured: mean CFU number ± S.D. (CFU)
Number in CFU, nothing else.

Entry CC[C@H](C)[C@H](NC(=O)[C@H](C)NC(=O)[C@@H](NC(C)=O)C(C)C)C(=O)N[C@@H](C)C(=O)N[C@@H](CC(C)C)C(=O)N[C@@H](CCCCN)C(=O)N[C@@H](C)C(=O)N[C@@H](C)C(=O)N[C@@H](Cc1c[nH]cn1)C(=O)N[C@@H](Cc1ccc(O)cc1)C(=O)N[C@@H](Cc1c[nH]cn1)C(=O)N[C@H](C(=O)N[C@@H](Cc1c[nH]cn1)C(=O)N[C@@H](CCCCN)C(=O)N[C@@H](CCC(=O)O)C(=O)O)[C@@H](C)O [L1, Ac-VAIALKAAHYHTHKE] (Ac-VAIALKAAHYHTHKE-OH) ; mean CFU number ± S.D. = 17

Entry CC[C@H](C)[C@H](NC(=O)[C@H](C)NC(=O)[C@@H](N)C(C)C)C(=O)N[C@@H](C)C(=O)N[C@@H](CC(C)C)C(=O)N[C@@H](CCCCN)C(=O)N[C@@H](C)C(=O)N[C@@H](C)C(=O)N[C@@H](Cc1c[nH]cn1)C(=O)N[C@@H](Cc1ccc(O)cc1)C(=O)N[C@@H](Cc1c[nH]cn1)C(=O)N[C@H](C(=O)N[C@@H](Cc1c[nH]cn1)C(=O)N[C@@H](CCCCN)C(=O)N[C@@H](CCC(=O)O)C(=O)O)[C@@H](C)O [WT, VAIALKAAHYHTHKE, reference compound] (H-VAIALKAAHYHTHKE-OH) ; mean CFU number ± S.D. = 42

Entry CC[C@H](C)[C@H](NC(=O)[C@H](C)NC(=O)[C@@H](N)C(C)C)C(=O)N[C@@H](C)C(=O)N[C@@H](CC(C)C)C(=O)N[C@@H](CCCCN)C(=O)N[C@@H](C)C(=O)N[C@@H](C)C(=O)N[C@@H](Cc1c[nH]cn1)C(=O)N[C@@H](Cc1ccc(O)cc1)C(=O)N[C@@H](Cc1c[nH]cn1)C(=O)N[C@H](C(=O)N[C@@H](Cc1c[nH]cn1)C(=O)N[C@@H](CCCCN)C(=O)N[C@@H](CCC(=O)O)C(N)=O)[C@@H](C)O [L3, VAIALKAAHYHTHKE-NH2] (H-VAIALKAAHYHTHKE-NH2) ; mean CFU number ± S.D. = 102
